Reported ED50 values follow for various compounds
# Test system: Mus musculus
# method notes: Anticonvulsant activity in DBA/2 mouse assessed as inhibition of audiogenic clonic seizures administered as ip, 30 mins prior to auditory stimulation measured for 60 secs
# Type: functional
# measurement context: DBA/2, ip
test readout: ED50

[[record]]
chemical_string = "O=C(CN1CCN(Cc2ccccc2)CC1)c1c[nH]c2ccc(O)cc12"
study_target = "Mus musculus"
result = "> 100 µmol/kg"

[[record]]
chemical_string = "O=C(CN1CCC(Cc2ccccc2)CC1)c1c[nH]c2c(O)cccc12"
study_target = "Mus musculus"
result = "> 100 µmol/kg"

[[record]]
chemical_string = "COc1cccc2[nH]cc(C(=O)C(=O)N3CCC(Cc4ccccc4)CC3)c12"
study_target = "Mus musculus"
result = "> 100 µmol/kg"


Data provenance: ChEMBL document CHEMBL1938374
